Assay: Human Hepatocyte Stability (Test D)
Assay type: in vitro ADME
Details: human, cryopreserved pooled human hepatocytes (LiverPool 10-Donor), geometric mean if run multiple times
quantity name: hepatocyte CLint at 1 µM (µL/min/1e6 cells)
Unit µL/min/1e6 cells implied. Number only.

// returns reported hepatocyte CLint at 1 µM for input COc1cc(F)c(O[C@H]2CC[C@@](C)(C(=O)O)CC2)cc1C(=O)N[C@@H]1[C@H]2CC[C@H](C2)[C@@H]1C(=O)Nc1ccc(F)c(S(F)(F)(F)(F)F)c1 [Example 353]
21

// returns reported hepatocyte CLint at 1 µM for input COc1cc(F)c(-c2ccn(CCC(=O)O)c(=O)c2)cc1C(=O)N[C@@H]1[C@H]2CC[C@H](C2)[C@@H]1C(=O)Nc1cccc(S(=O)(=O)C(F)(F)F)c1 [Example 249]
11

// returns reported hepatocyte CLint at 1 µM for input COc1c(C#N)cc(O[C@H]2CC[C@@](C)(C(=O)O)CC2)cc1C(=O)N[C@@H]1[C@H]2CC[C@H](C2)[C@@H]1C(=O)NCC1(C)CCC1 [Example 404]
11

---

Target: human RXFP1 (Homo sapiens, UniProt Q9HBX9)
Sequence (Q9HBX9 1-757): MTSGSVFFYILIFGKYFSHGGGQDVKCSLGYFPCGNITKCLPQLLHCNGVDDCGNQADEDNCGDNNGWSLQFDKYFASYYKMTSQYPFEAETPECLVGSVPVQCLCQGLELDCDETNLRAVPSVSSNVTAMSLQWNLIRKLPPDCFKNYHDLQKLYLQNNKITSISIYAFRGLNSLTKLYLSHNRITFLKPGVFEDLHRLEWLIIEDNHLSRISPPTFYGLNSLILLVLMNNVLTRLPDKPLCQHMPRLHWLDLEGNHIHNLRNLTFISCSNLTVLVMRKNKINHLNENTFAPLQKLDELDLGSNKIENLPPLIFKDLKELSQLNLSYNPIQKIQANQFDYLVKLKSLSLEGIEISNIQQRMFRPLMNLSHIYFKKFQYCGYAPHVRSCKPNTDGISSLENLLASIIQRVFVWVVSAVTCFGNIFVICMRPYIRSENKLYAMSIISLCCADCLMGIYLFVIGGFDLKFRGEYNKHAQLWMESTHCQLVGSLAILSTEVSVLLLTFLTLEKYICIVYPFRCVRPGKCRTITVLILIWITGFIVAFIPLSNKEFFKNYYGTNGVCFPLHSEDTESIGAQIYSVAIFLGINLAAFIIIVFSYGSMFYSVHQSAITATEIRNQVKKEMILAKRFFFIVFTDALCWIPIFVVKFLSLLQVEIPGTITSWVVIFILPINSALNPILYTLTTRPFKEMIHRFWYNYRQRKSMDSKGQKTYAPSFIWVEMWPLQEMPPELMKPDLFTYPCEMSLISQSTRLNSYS
Experiment: RXFP1 Hu cAMP (Test A)
Format: cell-based
Parameters: expressed in transfected cells; host or cells: Jump-In T-REx CHO-K1 cells (ThermoFisher), induced with 10 ng/ml doxycycline for 24 h
Details: RXFP1 Hu cAMP
quantity name: Test A Sinf (%)
Unit % implied. Number only.

Completed entries (count: 10):
>  <molecule>
COc1cc(F)c(-c2ccc(O)c(C(=O)O)c2)cc1C(=O)N[C@H]1[C@@H]2CC[C@@H](C2)[C@H]1C(=O)Nc1cccc(S(=O)(=O)C(F)(F)F)c1 (single isomer, unassigned) [Example 556]

>  <reading unit>
%

>  <observed value>
114

$$$$
>  <molecule>
CCC(CC)CNC(=O)[C@H]1CCC[C@H]1NC(=O)c1cc(O[C@H]2CC[C@@](C)(C(=O)O)CC2)c(F)cc1OC [Example 59]

>  <reading unit>
%

>  <observed value>
100

$$$$
>  <molecule>
COc1cc(F)c(OCCCCCC(=O)O)cc1C(=O)N[C@@H]1[C@H]2CC[C@H](C2)[C@@H]1C(=O)Nc1cccc(S(=O)(=O)C(F)(F)F)c1 [Example 435]

>  <reading unit>
%

>  <observed value>
103

$$$$
>  <molecule>
COc1cc(F)c(O[C@H]2CC[C@@H](C(=O)O)CC2)cc1C(=O)N[C@@H]1[C@H]2CC[C@H](C2)[C@@H]1C(=O)Nc1ccc(F)c(S(F)(F)(F)(F)F)c1 [Example 433]

>  <reading unit>
%

>  <observed value>
109

$$$$
>  <molecule>
COc1cc(F)c(OC2CCCC(C(=O)O)C2)cc1C(=O)N[C@@H]1[C@H]2CC[C@H](C2)[C@@H]1C(=O)Nc1cccc(S(=O)(=O)C(F)(F)F)c1 (single isomer, unassigned) [Example 447]

>  <reading unit>
%

>  <observed value>
94

$$$$
>  <molecule>
COc1cc(F)c(O[C@H]2CC[C@@](C)(C(=O)O)CC2)cc1C(=O)Nc1c(C)cc(C)cc1C(=O)NCC1(C)CCC1 [Example 211]

>  <reading unit>
%

>  <observed value>
100

$$$$
>  <molecule>
COc1cc(F)c(O[C@H]2CC[C@@](C)(C(=O)O)CC2)cc1C(=O)N[C@@H]1[C@H]2CC[C@H](C2)[C@@H]1C(=O)NCC1(C(F)(F)F)CCC1 [Example 613]

>  <reading unit>
%

>  <observed value>
109

$$$$
>  <molecule>
COc1cc(F)c(-c2ccc(CC(=O)O)cc2)cc1C(=O)N[C@H]1[C@@H](C(=O)Nc2cccc(S(=O)(=O)C(F)(F)F)c2)[C@@H]2C=C[C@H]1C2 (racemic) [Example 234]

>  <reading unit>
%

>  <observed value>
110

$$$$
>  <molecule>
CC(C)Oc1cc(F)c(O[C@H]2CC[C@@](CO)(C(=O)O)CC2)cc1C(=O)N[C@@H]1[C@H]2CC[C@H](C2)[C@@H]1C(=O)NCC1(C)CCC1 [Example 486]

>  <reading unit>
%

>  <observed value>
107

$$$$
>  <molecule>
COc1cc(C#N)c(O[C@H]2CC[C@@](C)(C(=O)O)CC2)cc1C(=O)Nc1cc(Cl)ccc1C(=O)NC[C@H]1C[C@@H](C)C1 [Example 159]

>  <reading unit>
%

>  <observed value>
125

$$$$

// returns reported Test A Sinf for input COc1cc(F)c(O[C@H]2CC[C@@](C)(C(=O)O)CC2)cc1C(=O)Nc1cccc(Cl)c1C(=O)NCC1(C)CCC1 [Example 54]
108

// returns reported Test A Sinf for input COc1cc(C#N)c(O[C@H]2CC[C@@](C)(C(=O)O)CC2)cc1C(=O)N[C@@H]1[C@H]2CC[C@H](C2)[C@@H]1C(=O)NC(C)(C)c1ccccc1 [Example 108]
106

// returns reported Test A Sinf for input COc1cc(F)c(-c2cnc([C@@H]3C[C@H]3C(=O)O)cn2)cc1C(=O)N[C@@H]1[C@H]2CC[C@H](C2)[C@@H]1C(=O)Nc1cccc(S(=O)(=O)C(F)(F)F)c1 (single isomer, unassigned) [Example 263]
106

---

Test: Rat Hepatocyte Stability (Test E)
Assay type: in vitro ADME
Conditions: rat, hepatocytes, geometric mean if run multiple times
quantity name: hepatocyte CLint
Report the figure along with its unit, number first.

Completed entries (count: 8):
>  <molecule>
COc1cc(C#N)c(O[C@H]2CC[C@@](C)(C(=O)O)CC2)cc1C(=O)N[C@@H]1[C@H]2CC[C@H](C2)[C@@H]1C(=O)NCC(C)(C)C(F)(F)F

>  <quantity name>
hepatocyte CLint

>  <observed value>
7.9 µL/min/1e6 cells

$$$$
>  <molecule>
COc1cc(F)c(O[C@H]2CC[C@@H](C(=O)O)CC2)cc1C(=O)N[C@@H]1CC(F)(F)C[C@@H]1C(=O)Nc1ccc(F)c(C(F)(F)F)c1 (racemic)

>  <quantity name>
hepatocyte CLint

>  <observed value>
4 µL/min/1e6 cells

$$$$
>  <molecule>
COc1cc(F)c(O[C@H]2CC[C@@H](C(=O)O)CC2)cc1C(=O)NC1C(C(=O)NCCCC(F)(F)F)[C@@H]2CC[C@H]1C2 (stereo partly shown)

>  <quantity name>
hepatocyte CLint

>  <observed value>
110 µL/min/1e6 cells

$$$$
>  <molecule>
COc1cc(C#N)c(O[C@H]2CC[C@@](C)(C(=O)O)CC2)cc1C(=O)N[C@@H]1[C@@H]2CC[C@@H](C2)[C@@H]1C(=O)NCC(C)(C)C(F)(F)F

>  <quantity name>
hepatocyte CLint

>  <observed value>
7.2 µL/min/1e6 cells

$$$$
>  <molecule>
COc1cc(F)c(O[C@H]2CC[C@@H](C(=O)O)CC2)cc1C(=O)N[C@@H]1[C@H]2CC[C@H](C2)[C@@H]1C(=O)Nc1nccc(C(F)(F)F)n1

>  <quantity name>
hepatocyte CLint

>  <observed value>
26 µL/min/1e6 cells

$$$$
>  <molecule>
COc1cc(C#N)c(O[C@H]2CC[C@@](C)(C(=O)O)CC2)cc1C(=O)N[C@@H]1[C@H]2CC[C@H](C2)[C@@H]1C(=O)NCC1(F)CCCC1

>  <quantity name>
hepatocyte CLint

>  <observed value>
32 µL/min/1e6 cells

$$$$
>  <molecule>
CCC(C)(C)CNC(=O)[C@H]1[C@@H]2CC[C@@H](C2)[C@H]1NC(=O)c1cc(O[C@H]2CC[C@@](C)(C(=O)O)CC2)c(F)cc1OC

>  <quantity name>
hepatocyte CLint

>  <observed value>
22 µL/min/1e6 cells

$$$$
>  <molecule>
COc1cc(F)c(O[C@H]2CC[C@@](C)(C(=O)O)CC2)cc1C(=O)N[C@@H]1[C@H]2CC[C@H](C2)[C@@H]1C(=O)NCC1(F)CCOCC1

>  <quantity name>
hepatocyte CLint

>  <observed value>
14 µL/min/1e6 cells

$$$$

// returns reported hepatocyte CLint for input COc1cc(F)c(-c2ccc(C(=O)O)cc2)cc1C(=O)N[C@@H]1[C@H]2CC[C@H](C2)[C@@H]1C(=O)Nc1cccc(S(=O)(=O)C(F)(F)F)c1
18 µL/min/1e6 cells

// returns reported hepatocyte CLint for input COc1cc(F)c(-c2ccc(/C=C/C(=O)O)nc2)cc1C(=O)N[C@@H]1[C@H]2CC[C@H](C2)[C@@H]1C(=O)Nc1cccc(S(=O)(=O)C(F)(F)F)c1
69 µL/min/1e6 cells
